- test_details: Pharmacokinetic evaluation after intravenous or gavage administration to rats
- Assay type: in vivo, SD rats
- run_parameters: Sprague-Dawley (SD), rat, plasma, iv, i.v group, 1 mg/kg
quantity_kind: clearance (mL/min/kg)
Numbers only, in mL/min/kg.

> print(dat)
                                   compound  data.value
1  CONC(=O)Nc1ccc(-c2sc3c(c2CN(C)C)c(=O)n(-c2ccc(-n4cccn4)nc2)c(=O)n3Cc2c(F)cccc2F)cc1 [Example 3]        90.7

Could you now look at the following compound, please?
// query Look up clearance for this compound: CONC(=O)Nc1ccc(-c2sc3c(c2CN(C)C)c(=O)n(-c2ccc(-n4nccn4)cn2)c(=O)n3Cc2c(F)cccc2F)cc1 [Example 2]
// result 62.7

Reference for the values: patent US20220267347A1
